Entries and their change in vivo at 0.31 mg/kg
system: pentobarbital-anesthetized dog; assay: In Vivo Myocardial Inotropic Activity in Anesthetized Dog (CVAD); set-up: species or system dog (adult mongrel); details: Canis lupus familiaris, iv, 0.31 mg/kg IV; read-out: Percent Change Heart Rate

{"SMILES NOTATION": "Cc1nn(C)c2c(=O)[nH]c(-c3ccc(Cl)c(Cl)c3)nc12", "change in vivo at 0.31 mg/kg (%)": 7}
{"SMILES NOTATION": "Cc1nn(C)c2c(=O)[nH]c(-c3ccc([N+](=O)[O-])cc3)nc12", "change in vivo at 0.31 mg/kg (%)": 0}
{"SMILES NOTATION": "Cc1nn(C)c2c(=O)[nH]c(-c3cccnc3)nc12", "change in vivo at 0.31 mg/kg (%)": 1}
{"SMILES NOTATION": "Cc1nn(C)c2c(=O)[nH]c(-c3ccccc3)nc12", "change in vivo at 0.31 mg/kg (%)": -4}
{"SMILES NOTATION": "COc1cc(OC)cc(-c2nc3c(C)nn(C)c3c(=O)[nH]2)c1", "change in vivo at 0.31 mg/kg (%)": 3}
